# Tested on: KM12 colon
# Assay protocol: NCI-60 one-dose screen, 48 h (100 = growth as untreated, 0 = no growth, -100 = all killed)
# Assay conditions: 10 µM unless noted
The panel holds about 83,000 compounds, 20% with a hit somewhere; the sample as a whole holds those more often.
Mark yes only for growth values smaller than 80%; exact matches and larger values are no.

Solved cases below.
- Compound: "Cc1[nH]n(-c2cccc(Cl)c2)c(=O)c1/C=C1\\C=c2ccccc2=CC1=O"
  Assigned label: "yes"
- Compound: "FC(F)(F)c1[nH]ncc1-c1nc2ccc3[nH]ncc3c2c2c1CCCC2"
  Assigned label: "yes"
- Compound: "CCCn1c(=S)sc2c(NNC(C)=O)nc(C)nc21"
  Assigned label: "no"
- Compound: "C=CCN=c1sc(-c2ccc3ccccc3c2)cn1NC(=O)c1cc2ccc1CCc1ccc(cc1)CC2"
  Assigned label: "yes"
- Compound: "c1ccc(Cn2cc3c(c2-c2ccccc2)CCc2cnoc2-3)cc1"
  Assigned label: "yes"

**Q:** Is it true that growth reported for "CCOC(=O)/C=C1\S/C(=N\Nc2cc(=O)[nH]c3ccc(Br)cc23)N(c2ccccc2)C1=O" is less than 80%?
**A:** no

**Q:** Is it true that growth reported for "CCN(CC)c1ccc(-c2cc(-c3cc(OC)c(OC)c(OC)c3)nc(N3CCC(O)CC3)c2C#N)cc1" is less than 80%?
**A:** yes

**Q:** Is it true that growth reported for "CCCCNC(=O)c1ccc2c(c1)nc(-c1ccccc1)n2C1CCCCC1" is less than 80%?
**A:** no

**Q:** Is it true that growth reported for N#CC1=C(N)Oc2c(sc3c(F)cccc23)C1c1ccc([N+](=O)[O-])cc1 (centres undefined) is less than 80%?
**A:** yes

**Q:** Is it true that growth reported for "CC1=C2[C@@H](CC1)[C@]1(C)O[C@@](C3CCNCC3)(C[C@H]1OC(=O)CO)[C@H]2OC(=O)/C=C/c1ccccc1" is less than 80%?
**A:** no

**Q:** Is it true that growth reported for "COc1ccc(-c2cn(Cc3cc4ccccc4s3)nn2)cc1OCCN1CCCCC1" is less than 80%?
**A:** no

**Q:** Is it true that growth reported for "O=C(O)c1cn(C2CC2)c2cc(N3CCN(C(=O)N4CCOCC4)CC3)c(F)cc2c1=O" is less than 80%?
**A:** no

**Q:** Is it true that growth reported for "CSc1ccc2c3c(n(C[C@H](O)CO)c(=O)c2c1)-c1ccccc1C3=O" is less than 80%?
**A:** yes

**Q:** Is it true that growth reported for "Cc1ccccc1N1CCN(C(=S)c2ccccc2)CC1" is less than 80%?
**A:** no

**Q:** Is it true that growth reported for "COCCn1cc(-c2nc(-c3cc4cccnc4n3C)cs2)c2ccccc21" is less than 80%?
**A:** yes

**Q:** Is it true that growth reported for "O=C(/C=C/c1ccco1)Nc1ncc(Cc2cc(Cl)ccc2Cl)s1" is less than 80%?
**A:** yes

**Q:** Is it true that growth reported for "Nc1ccc(Br)cc1C(F)(F)F" is less than 80%?
**A:** no

**Q:** Is it true that growth reported for COc1ccc(C2C3=C(COC3=O)N(CCO)c3cc4c(cc32)OCO4)cc1OC (centres undefined) is less than 80%?
**A:** yes

**Q:** Is it true that growth reported for "Fc1cc2[nH]ncc2c2c3c(c(-c4cn[nH]c4C(F)(F)F)nc12)CCCC3" is less than 80%?
**A:** yes

---

# Tested on: DU-145 prostate
# Assay protocol: NCI-60 one-dose screen, 48 h (100 = growth as untreated, 0 = no growth, -100 = all killed)
# Assay conditions: 10 µM unless noted
# Experimental: Cells are grown in 96 well plates and exposed to the test compound for 48 hours. Compounds are tested at a single concentration, which is 10^-5 M for most compounds. The reported endpoint is percent growth (GI% or GIPRCNT), where numbers from 0 - 100% represent growth inhibition, and numbers from -100% - 0 represent cell death. For example, a value of 40 represents 60% growth inhibition. A value of 0 means no net growth occurred over the course of the experiment. […]
The panel holds about 83,000 compounds, 20% with a hit somewhere; the sample as a whole holds those more often. Calls of active or inactive are those of the source. How the source made its calls: active means growth percent below 10; inactive means the rest.
Parameter measured: growth

- Molecule: "CN1CC(c2ccc(Br)cc2)C(C(=O)c2ccc(Br)cc2)C12C(=O)Nc1ccccc12 (stereo not given)"
  growth: "83.5% (inactive)"
- Molecule: "CC(C)(C)OC(=O)CN1CCc2c(sc3ncnc(N4CCN(c5ccc(F)cc5)CC4)c23)C1"
  growth: "90.1% (inactive)"
- Molecule: "CC(=O)c1ccc(-n2cc(CN3CCN(c4cc5c(cc4F)c(=O)c(C(=O)O)cn5C4CC4)CC3)nn2)cc1"
  growth: "104% (inactive)"
- Molecule: "CCCCCCCCCCCCCCCCCCOc1ccccc1CC(=O)NCC[N+](C)(C)C"
  growth: "44.3% (inactive)"
- Molecule: "COC1/C=C/OC2(C)Oc3c(C)c(O)c4c(O)c(c(/C=N/N(c5ccccc5)c5ccccc5)c(O)c4c3C2=O)NC(=O)C(C)=C/C=C/C(C)C(O)C(C)C(O)C(C)C(OC(C)=O)C1C (stereo not given)"
  growth: "90.1% (inactive)"
- Molecule: "Cn1c(=O)[nH]c(=O)c2nc3c(nc21)-c1ccccc1C3=O"
  growth: "104% (inactive)"
- Molecule: "Cc1nc([P+](c2ccccc2)(c2ccccc2)c2ccccc2)c(N2CCCCC2)o1"
  growth: "30.2% (inactive)"
- Molecule: "N#Cc1nn(-c2cc(=O)[nH]c3ccc(Br)cc23)c(N)c1C#N"
  growth: "117% (inactive)"

Hey, quick one: what's growth for each of these?
1. C=CN(C(=O)N1CCN(c2cc3c(cc2F)c(=O)c(C(=O)O)cn3C2CC2)CC1)c1nc(-c2ccccc2)cs1
2. CCN(CC)CCOc1ccc(C(=O)/C=C\c2ccc(Cl)cc2Cl)cc1
3. Cn1c(=O)c2[nH]c(SC/C(=N/O)c3ccc(Br)cc3)nc2n(C)c1=O
4. COc1cc(-c2ccc(-c3ccc(C(=N)N)cc3)s2)cc(OC)c1OC
5. COc1ccc2c(c1)oc1c(C)c3c(c(C)c12)C(=O)N(CCOS(C)(=O)=O)C3=O
6. Nc1nc2ccccc2c2c(=O)c3cc(Cl)ccc3sc12

**A:**
["107% (inactive)", "51.7% (inactive)", "68.4% (inactive)", "63.6% (inactive)", "106% (inactive)", "14.6% (inactive)"]

Hey, quick one: what's growth for each of these?
1. CCN(CC)CCOc1ccc2c(-c3ccccc3)c(-c3ccc(OC)cc3)c(=O)oc2c1
2. Cn1cc(-c2csc(-c3cn(C)c4ccccc34)n2)c2cnccc21
3. COc1cc2c(c(OC)c1OC)CCC(c1cccc(C(=O)Nc3ccc(Br)cc3)c1)O2 (stereo not given)
4. C=C(C)[C@@H]1CC[C@]2(C)[C@H](C=CC3=C4C[C@@](C)(CO)CC[C@]4(C)CC[C@]32C)[C@@]1(C)CCCN
5. C=C1SC(=Nc2ccccc2Cl)N(C(=O)c2sc3ccccc3c2Cl)C1(C)C
6. C/C=C1/CN(CCCCC)CC[C@H]1C(=O)c1cc2ccccc2[nH]1
7. O=c1ccc2ccc(OCCN3CCCCC3)cc2o1

**A:**
1: 95.6% (inactive); 2: 29.2% (inactive); 3: 71% (inactive); 4: -72.7% (active); 5: 94% (inactive); 6: 99% (inactive); 7: 118% (inactive)

Hey, quick one: what's growth for each of these?
1. CN(C)c1ccc(CNCCO)cc1
2. N#Cc1c(-c2ccc(Cl)cc2)nc(NN=Cc2ccc[nH]2)nc1N1CCOCC1
3. CN(C)CCCn1c2c(c3cnccc3c1=O)C(=O)c1ccccc1-2
4. O=c1oc2c(cc1-c1ccccc1)c[n+]([O-])c1ccccc21
5. CC(=O)O[C@H]1CC[C@]2(C)[C@H]3CC=C4[C@@H]5CC(C)(C)CC[C@]5(C(=O)N5CCN(CCC#N)CC5)CC[C@@]4(C)[C@]3(C)CC[C@H]2C1(C)C

**A:**
1. 105% (inactive)
2. 84.2% (inactive)
3. -16.9% (active)
4. 103% (inactive)
5. 57.8% (inactive)

Hey, quick one: what's growth for each of these?
1. O=c1oc2c(cnc3ccccc32)cc1-c1cccc(Cl)c1
2. c1csc(-c2cn3nc(-c4c[nH]c5ccccc45)sc3n2)c1
3. CCOC(=O)C1=C(c2ccccc2)N=C2N(c3ccccc3)N=C(C(C)=O)N2C1c1ccc(F)cc1 (stereo not given)
4. COc1cc(C=C2C(=O)NC(=S)NC2=O)cc(CN2CCCC2)c1O
5. O=C1CCCCN1c1ccc(C2=NCCCN2)cc1
6. COc1ccc(/C=C2\CN(C(=O)C(Cl)Cl)C/C(=C\c3ccc(OC)c(OC)c3)C2=O)cc1OC

**A:**
1. 108% (inactive)
2. 13.4% (inactive)
3. 106% (inactive)
4. 113% (inactive)
5. 103% (inactive)
6. -16% (active)
